System: UO-31 renal
Assay Comment: NCI tumour cell line growth inhibition, 48 h; in the data active = GI50 below about 0.43 µM; inactive = the rest
Select the matching outcome among T = active, F = inactive

Reference set (4 entries):
{"columns": ["Compound", "Cat"],
 "data": [
  ["COc1cc(/C=C/C(=O)c2ccc(F)cc2)ccc1OCCCCCOc1cc2c(cc1OC)C(=O)N1CCCC1C=N2 (stereo unspecified)", "T"],
  ["CCOc1cc(/C=C/C(=O)C(C(=O)/C=C/c2ccc(OC(=O)CNc3nnc(C)s3)c(OCC)c2)C(=O)CNc2nnc(C)s2)ccc1OC(=O)CNc1nnc(C)s1", "F"],
  ["O=C1NC(=O)C(c2ccccc2)=C1Nc1ccccc1", "F"],
  ["CCOC(=O)[C@@H](C)C[C@H](Cc1ccccc1)NC(=O)c1csc([C@@H](C[C@H](C(C)C)N(C)C(=O)[C@@H](NC(=O)[C@H]2C[C@H](O)CCN2C)C(C)C)OC(C)=O)n1", "F"]
]}

## Task Answer briefly: the call reported for Oc1ccc(Cc2ccc(O)c(C3CC(c4ccc(Cl)cc4)=NN3)c2)cc1C1CC(c2ccc(Cl)cc2)=NN1 (stereo unspecified) in this assay.
## Result F

## Task Answer briefly: the call reported for `NCCCn1c2c(c3ccc([N+](=O)[O-])cc3c1=O)C(=O)c1cc(F)ccc1-2` in this assay.
## Result T
